Experiment: FIG. 10
Structures can show the parent of a compound that is named as a salt. Peptide text beside a SMILES is read from it. * marks the point of attachment. For = O=C*
ENDPOINT_NAME: After 4 weeks @ 40°C | Ala (area%)

- COMPOUND: "CSCC[C@H](NC=O)C(=O)N[C@@H](CC(=O)O)C(=O)NCC(=O)N[C@@H](CS)C(=O)N[C@@H](CCC(=O)O)C(=O)N[C@@H](CC(C)C)C(=O)O [LYS Tri salt] (For-MDGCEL-OH)"
  After 4 weeks @ 40°C | Ala (area%): "8,45 area%"
- COMPOUND: "CSCC[C@H](NC=O)C(=O)N[C@@H](CC(=O)O)C(=O)NCC(=O)N[C@@H](CS)C(=O)N[C@@H](CCC(=O)O)C(=O)N[C@@H](CC(C)C)C(=O)O [Na Tri salt] (For-MDGCEL-OH)"
  After 4 weeks @ 40°C | Ala (area%): "14,70 area%"

Note: attention shifts to another entry.
Requested read-out: After 4 weeks @ 40°C | Ala (area%). Entry: CSCC[C@H](NC=O)C(=O)N[C@@H](CC(=O)O)C(=O)NCC(=O)N[C@@H](CS)C(=O)N[C@@H](CCC(=O)O)C(=O)N[C@@H](CC(C)C)C(=O)O [NMG Tri salt] (For-MDGCEL-OH)
0,00 area%

---

Test: FIG. 10
Counter-ions that a name gives are not always drawn. Peptide text beside a SMILES is read from it. * marks the point of attachment. For = O=C*
Here, each record is paired with measured After 4 weeks @ 40°C | Dimer (area%) data.

- COMPOUND: "CSCC[C@H](NC=O)C(=O)N[C@@H](CC(=O)O)C(=O)NCC(=O)N[C@@H](CS)C(=O)N[C@@H](CCC(=O)O)C(=O)N[C@@H](CC(C)C)C(=O)O [TRO Tri salt] (For-MDGCEL-OH)"
  MEASURED_RESULT: "1,28 area%"

Requested read-out: After 4 weeks @ 40°C | Dimer (area%). Entry: CSCC[C@H](NC=O)C(=O)N[C@@H](CC(=O)O)C(=O)NCC(=O)N[C@@H](CS)C(=O)N[C@@H](CCC(=O)O)C(=O)N[C@@H](CC(C)C)C(=O)O [NMG Tri salt] (For-MDGCEL-OH)
0,82 area%

Requested read-out: After 4 weeks @ 40°C | Dimer (area%). Entry: CSCC[C@H](NC=O)C(=O)N[C@@H](CC(=O)O)C(=O)NCC(=O)N[C@@H](CS)C(=O)N[C@@H](CCC(=O)O)C(=O)N[C@@H](CC(C)C)C(=O)O [NH3 Tri salt] (For-MDGCEL-OH)
3,37 area%

Requested read-out: After 4 weeks @ 40°C | Dimer (area%). Entry: CSCC[C@H](NC=O)C(=O)N[C@@H](CC(=O)O)C(=O)NCC(=O)N[C@@H](CS)C(=O)N[C@@H](CCC(=O)O)C(=O)N[C@@H](CC(C)C)C(=O)O [NMG Di salt] (For-MDGCEL-OH)
0,81 area%

Requested read-out: After 4 weeks @ 40°C | Dimer (area%). Entry: CSCC[C@H](NC=O)C(=O)N[C@@H](CC(=O)O)C(=O)NCC(=O)N[C@@H](CS)C(=O)N[C@@H](CCC(=O)O)C(=O)N[C@@H](CC(C)C)C(=O)O [NH3 Di salt] (For-MDGCEL-OH)
0,27 area%

---

Assay: FIG. 10
Structures can show the parent of a compound that is named as a salt. Peptide text beside a SMILES is read from it. * marks the point of attachment. For = O=C*
ENDPOINT_NAME: After 4 weeks @ 40°C | Dimer (area%)

Consider the following illustrative entries.
- MOLECULE: "CSCC[C@H](NC=O)C(=O)N[C@@H](CC(=O)O)C(=O)NCC(=O)N[C@@H](CS)C(=O)N[C@@H](CCC(=O)O)C(=O)N[C@@H](CC(C)C)C(=O)O [HIS Tri salt] (For-MDGCEL-OH)"
  MEASURED_RESULT: "0,90 area%"
- MOLECULE: "CSCC[C@H](NC=O)C(=O)N[C@@H](CC(=O)O)C(=O)NCC(=O)N[C@@H](CS)C(=O)N[C@@H](CCC(=O)O)C(=O)N[C@@H](CC(C)C)C(=O)O [TRO Di salt] (For-MDGCEL-OH)"
  MEASURED_RESULT: "0,60 area%"
- MOLECULE: "CSCC[C@H](NC=O)C(=O)N[C@@H](CC(=O)O)C(=O)NCC(=O)N[C@@H](CS)C(=O)N[C@@H](CCC(=O)O)C(=O)N[C@@H](CC(C)C)C(=O)O [Foxy-5 free acid] (For-MDGCEL-OH)"
  MEASURED_RESULT: "0,00 area%"
- MOLECULE: "CSCC[C@H](NC=O)C(=O)N[C@@H](CC(=O)O)C(=O)NCC(=O)N[C@@H](CS)C(=O)N[C@@H](CCC(=O)O)C(=O)N[C@@H](CC(C)C)C(=O)O [LYS Tri salt] (For-MDGCEL-OH)"
  MEASURED_RESULT: "3,40 area%"
- MOLECULE: "CSCC[C@H](NC=O)C(=O)N[C@@H](CC(=O)O)C(=O)NCC(=O)N[C@@H](CS)C(=O)N[C@@H](CCC(=O)O)C(=O)N[C@@H](CC(C)C)C(=O)O [DEA Tri salt] (For-MDGCEL-OH)"
  MEASURED_RESULT: "5,80 area%"

Note: attention shifts to another entry.
Requested read-out: After 4 weeks @ 40°C | Dimer (area%). Entry: CSCC[C@H](NC=O)C(=O)N[C@@H](CC(=O)O)C(=O)NCC(=O)N[C@@H](CS)C(=O)N[C@@H](CCC(=O)O)C(=O)N[C@@H](CC(C)C)C(=O)O [HIS Di salt] (For-MDGCEL-OH)
0,00 area%

---

Experiment: Solubility / lyophilization concentration of Foxy-5 drug substance (background statements)
Type: physicochemical
Conditions: water, free Foxy-5 hexapeptide, for comparison; read-out: aqueous solubility
Peptide text beside a SMILES is read from it. * marks the point of attachment. For = O=C*
ENDPOINT_NAME: solubility

Requested read-out: solubility. Entry: CSCC[C@H](NC=O)C(=O)N[C@@H](CC(=O)O)C(=O)NCC(=O)N[C@@H](CS)C(=O)N[C@@H](CCC(=O)O)C(=O)N[C@@H](CC(C)C)C(=O)O [Foxy-5, For-Met-Asp-Gly-Cys-Glu-Leu-OH] (For-MDGCEL-OH)
~3000 µg/mL

---

Here, each record is paired with measured After 4 weeks @ 40°C | HPLC purity (area%) data.
Experiment: FIG. 10
Counter-ions that a name gives are not always drawn. Peptide text beside a SMILES is read from it. * marks the point of attachment. For = O=C*

Consider the following illustrative entries.
- COMPOUND: "CSCC[C@H](NC=O)C(=O)N[C@@H](CC(=O)O)C(=O)NCC(=O)N[C@@H](CS)C(=O)N[C@@H](CCC(=O)O)C(=O)N[C@@H](CC(C)C)C(=O)O [NMG Tri salt] (For-MDGCEL-OH)"
  MEASURED_RESULT: "95,14 area%"
- COMPOUND: "CSCC[C@H](NC=O)C(=O)N[C@@H](CC(=O)O)C(=O)NCC(=O)N[C@@H](CS)C(=O)N[C@@H](CCC(=O)O)C(=O)N[C@@H](CC(C)C)C(=O)O [HIS Di salt] (For-MDGCEL-OH)"
  MEASURED_RESULT: "96,52 area%"
- COMPOUND: "CSCC[C@H](NC=O)C(=O)N[C@@H](CC(=O)O)C(=O)NCC(=O)N[C@@H](CS)C(=O)N[C@@H](CCC(=O)O)C(=O)N[C@@H](CC(C)C)C(=O)O [LYS Di salt] (For-MDGCEL-OH)"
  MEASURED_RESULT: "95,17 area%"
- COMPOUND: "CSCC[C@H](NC=O)C(=O)N[C@@H](CC(=O)O)C(=O)NCC(=O)N[C@@H](CS)C(=O)N[C@@H](CCC(=O)O)C(=O)N[C@@H](CC(C)C)C(=O)O [DEA Tri salt] (For-MDGCEL-OH)"
  MEASURED_RESULT: "80,92 area%"
- COMPOUND: "CSCC[C@H](NC=O)C(=O)N[C@@H](CC(=O)O)C(=O)NCC(=O)N[C@@H](CS)C(=O)N[C@@H](CCC(=O)O)C(=O)N[C@@H](CC(C)C)C(=O)O [TRO Tri salt] (For-MDGCEL-OH)"
  MEASURED_RESULT: "78,60 area%"

Requested read-out: After 4 weeks @ 40°C | HPLC purity (area%). Entry: CSCC[C@H](NC=O)C(=O)N[C@@H](CC(=O)O)C(=O)NCC(=O)N[C@@H](CS)C(=O)N[C@@H](CCC(=O)O)C(=O)N[C@@H](CC(C)C)C(=O)O [NH3 Tri salt] (For-MDGCEL-OH)
86,45 area%

Requested read-out: After 4 weeks @ 40°C | HPLC purity (area%). Entry: CSCC[C@H](NC=O)C(=O)N[C@@H](CC(=O)O)C(=O)NCC(=O)N[C@@H](CS)C(=O)N[C@@H](CCC(=O)O)C(=O)N[C@@H](CC(C)C)C(=O)O [HIS Tri salt] (For-MDGCEL-OH)
95,32 area%

Requested read-out: After 4 weeks @ 40°C | HPLC purity (area%). Entry: CSCC[C@H](NC=O)C(=O)N[C@@H](CC(=O)O)C(=O)NCC(=O)N[C@@H](CS)C(=O)N[C@@H](CCC(=O)O)C(=O)N[C@@H](CC(C)C)C(=O)O [Foxy-5 free acid] (For-MDGCEL-OH)
98,21 area%

Values compiled from patent US20250325485A1.
